target: T1, GST-fused ubiquitin (Ub) (UniProt P0CG48 1-76); experiment: SPR; Biacore T200, Sensor Chip C1; GST-fused Ub or Ub2 captured by immobilised anti-GST antibodies (200-400 RU); FAAP20-UBZ injected 60 s at 10 uL/min; 25°C, HBS-P (10 mM HEPES-Na pH 7.4, 150 mM NaCl, 0.05% surfactant P20); equilibrium fit, 1:1 model; triplicate; details: both partners purified
T1 construct: ubiquitin (Ub), the mature product of a ubiquitin precursor; Captured on the chip by anti-GST antibodies; source: purified (Glutathione Sepharose FF, ResourceQ)
Readout Label: pKd
Answer as the number alone; pKd is minus log10 of concentration in mol/L.

Query: Given AALRSCPMCQKEFAPRLTQLDVDSHLAQCLLESTEDVTW (domain or fragment, human, UniProt Q6NZ36 142-180, looked up, human FAAP20, UBZ domain, residues 142-180; source: purified similarly to wild-type FAAP20-UBZ (E. coli Rosetta (DE3)); not shown: GST, N-terminal, cleaved) [FAAP20-UBZ A172L] , state its recorded pKd.
Result: 3.95

Query: Given AALRSCPMCQKEFAPRLTQADVDSHLAQCLAESTEDVTW (domain or fragment, human, UniProt Q6NZ36 142-180, looked up, human FAAP20, UBZ domain, residues 142-180; source: purified similarly to wild-type FAAP20-UBZ (E. coli Rosetta (DE3)); not shown: GST, N-terminal, cleaved) [FAAP20-UBZ L161A] , state its recorded pKd.
Result: 3.90

Query: Given AALRSCPMCQKEFAPRLTQLDVDSHLAQCLAESTEAVTW (domain or fragment, human, UniProt Q6NZ36 142-180, looked up, human FAAP20, UBZ domain, residues 142-180; source: purified similarly to wild-type FAAP20-UBZ (E. coli Rosetta (DE3)); not shown: GST, N-terminal, cleaved) [FAAP20-UBZ D177A] , state its recorded pKd.
Result: 3.66
